Taken from patent US20230159510A1.

molecular target: PRMT5/MEP50 (Homo sapiens, UniProt O14744); test: MTase-Glo methyl transferase assay, Method B (FL-Histone H2A, 1 µM MTA, 1 h pre-incubation); format: biochemical; set-up: purchased Reaction Biology Corp RD-11-292; details: read-out: PRMT5 MTase Glo Ki (nM, Meth. B)
Sequence (O14744 2-637 limits assumed): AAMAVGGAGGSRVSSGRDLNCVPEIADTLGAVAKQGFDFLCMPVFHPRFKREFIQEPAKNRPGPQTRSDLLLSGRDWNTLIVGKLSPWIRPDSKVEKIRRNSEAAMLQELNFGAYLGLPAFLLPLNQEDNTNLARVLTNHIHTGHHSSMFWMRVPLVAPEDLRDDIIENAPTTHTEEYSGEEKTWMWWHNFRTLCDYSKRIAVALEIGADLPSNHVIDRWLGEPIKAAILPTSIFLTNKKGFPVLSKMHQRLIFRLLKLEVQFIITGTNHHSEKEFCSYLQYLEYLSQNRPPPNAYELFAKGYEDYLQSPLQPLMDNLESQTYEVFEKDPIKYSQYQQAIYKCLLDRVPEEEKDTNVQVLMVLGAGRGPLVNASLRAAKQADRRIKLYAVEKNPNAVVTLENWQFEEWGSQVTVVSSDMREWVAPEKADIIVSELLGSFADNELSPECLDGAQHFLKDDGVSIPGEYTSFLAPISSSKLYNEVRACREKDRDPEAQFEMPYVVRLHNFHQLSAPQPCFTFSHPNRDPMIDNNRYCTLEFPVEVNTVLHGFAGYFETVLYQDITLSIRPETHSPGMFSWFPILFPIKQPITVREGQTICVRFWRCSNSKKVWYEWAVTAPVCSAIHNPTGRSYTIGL
Sequence (Q9BQA1 2-342 partner limits assumed): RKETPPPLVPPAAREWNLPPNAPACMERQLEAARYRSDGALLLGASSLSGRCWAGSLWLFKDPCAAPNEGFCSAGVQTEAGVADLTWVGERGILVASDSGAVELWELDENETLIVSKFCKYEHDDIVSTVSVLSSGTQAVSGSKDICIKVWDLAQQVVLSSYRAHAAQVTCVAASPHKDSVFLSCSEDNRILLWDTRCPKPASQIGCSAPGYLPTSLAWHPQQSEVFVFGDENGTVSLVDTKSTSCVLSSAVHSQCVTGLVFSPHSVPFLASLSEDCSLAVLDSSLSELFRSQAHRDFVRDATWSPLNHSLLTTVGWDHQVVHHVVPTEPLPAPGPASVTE
readout_type: Ki (nM)

I. Cc1cc2cc(C(=O)N(Cc3ccc(-c4cc[nH]n4)cc3)Cc3ccc(C(F)(F)F)cn3)ccc2nc1N
II. Cc1cc2cc(C(=O)N(Cc3ccc(C(F)(F)F)cn3)C3COc4c3ccc(C)c4C)ccc2nc1N (centres unmarked)
Between these two entries, I and II , state which has the higher Ki. Answer by quoting the chosen item's label. II

1. COC(CN(Cc1ccc(C(F)(F)F)cn1)C(=O)c1ccc2nc(N)c(C)cc2c1)C(C)C (centres unmarked)
2. Cc1cc2cc(C(=O)N(Cc3ccc(C(F)(F)F)cn3)C(C)C(C)O)ccc2nc1N (centres unmarked)
Pick one: 1 or 2 . Which one has the lower reported Ki? Your answer should be the label of the entry you select. 1

P. Cc1cc2cc(C(=O)N(CCc3ncon3)Cc3ccc(C(F)(F)F)cn3)ccc2nc1N
Q. Cc1cc2cc(C(=O)N(Cc3ccc4[nH]ncc4c3)Cc3ccc(C(F)(F)F)cn3)ccc2nc1N
// pick min by Ki: P , Q Write down the label attached to your selection. Q
(Q: 1.59 nM, P: 5.89 nM)

* * *

tested on: HCT116 MTAP null cells; experiment: HCT116 proliferation assay, MTAP null cells (CellTiter-Glo, 6 days); assay type: cell-based; conditions: HCT116-MTAP null, 144 h, read-out: Protif_ HCT116-MTAP null IC50
readout_type: IC50 (nM)

Fill in the recorded IC50 for this molecule, with HCT116 MTAP null cells as test system: Cc1cc2cc(C(=O)N(Cc3ccc(C4=CCOCC4)nn3)[C@H](C)c3ncccn3)ccc2nc1N [Example 333] 27

Lab request: please report IC50 under test system HCT116 MTAP null cells for Cc1cc2cc(C(=O)N(Cc3ccc(N4CCOCC4)nn3)C(C)c3ncccn3)c(F)cc2nc1N (stereo in doubt) [Example 731] 50

Which measured IC50 belongs to COc1ccc(CN(C(=O)c2ccc3nc(N)c(C)cc3c2)[C@H](C)c2ncccn2)nn1 (single isomer, unassigned) [Example 517] , tested on HCT116 MTAP null cells? 73

Give HCT116 MTAP null cells IC50 for Cc1nc(CN(C(=O)c2cnc3nc(N)c(I)cc3c2)[C@H](C)c2ncccn2)ccc1C#N [Example 840] 90

Request - read-out IC50 | tested on HCT116 MTAP null cells | molecule C[C@H](c1ncccn1)N(Cc1ccc(C(F)(F)F)nn1)C(=O)c1ccc2nc(N)c(Cl)cc2c1 (single isomer, unassigned) [Example 445] 549

P. Cc1c(Br)c(N)nc2ncc(C(=O)N(Cc3ccc(C#N)cn3)[C@H](C)c3ncccn3)cc12 [Example 744]
Q. Cc1cc(N)nc2ccc(C(=O)N(Cc3ccc(C(F)(F)F)cn3)Cc3ccn(C)n3)cc12 [Example 709]
Select the item with the higher value of IC50 from the options P and Q listed. State your choice using its label. Q

* * *

Tested on: HCT116 MTAP null cells
Assay: HCT116 proliferation assay, MTAP null cells (CellTiter-Glo, 6 days)
Format: cell-based
Conditions: HCT116-MTAP null, 144 h, read-out: Protif_ HCT116-MTAP null IC50
Experimental: HCT116 MTAP null and WT cells were seeded in 96-well tissue culture plates in RPMI 1640 media + 10% fetal bovine serum. Plates were incubated overnight at 37° C. and 5% CO2. […] Effects on cell viability were measured with the CellTiter-Glo® Luminescent Cell Viability Assay (Promega) per manufacturer’s recommendation. Assay plates were read on an EnVision™ Multilabel Reader using the Ultra-Sensitive luminescence module.
pIC50: −log10 of the molar value.
readout_type: pIC50

Solved entries:
What value of measured pIC50 is listed for Cc1cc2cc(C(=O)N(Cc3ccc(N4CC(F)(F)C4)cn3)[C@H](C)c3ncccn3)ccc2nc1N [Example 359] ? 6.68

# input compound: C[C@H](c1ncccn1)N(Cc1ccc(C(F)(F)F)cn1)C(=O)c1ccc2nc(N)ccc2c1 [Example 765] ; wanted: its pIC50 6.74

Give the measured pIC50 of Cc1cc2cc(C(=O)N(Cc3ccc(C#N)cn3)Cc3ncccc3F)ccc2nc1N [Example 327] . 6.52

Entry Cc1cc2cc(C(=O)N(Cc3ccc(C(F)(F)F)nc3)[C@H](C)c3ncccn3)ccc2nc1N (single isomer, unassigned) [Example 477] has what pIC50? 6.71

Requested field: pIC50. Item: C[C@H](c1ncccn1)N(Cc1ccc(Cl)cn1)C(=O)c1cnc2nc(N)c(Br)cc2c1 [Example 414] 6.63

Returns the measured pIC50 for the input compound. Input: Cc1cc2cc(C(=O)N(Cc3ccccn3)Cc3ccc(C(F)(F)F)cn3)ccc2nc1N [Example 302] 6.44

1. Cc1cc2cc(C(=O)N(Cc3ccc(C(F)(F)F)cn3)Cc3ccnc4[nH]ccc34)ccc2nc1N [Example 356]
2. Cc1cc2cc(C(=O)N(Cc3ccc(N4CCC(C(N)=O)CC4)cc3)Cc3ccnc4[nH]ccc34)ccc2nc1N [Example 573]
Parameter metric = pIC50. Return the lower-valued option from 1 and 2 . Choose, then provide that item's label. 2
